target: Cannabinoid CB2 (h) (Homo sapiens); construct: expressed in transfected cells; host or cells: CHO cells; test: Binding CB2 (h) (ag); settings: read-out: % Inhibition of Control Specific Binding @ 10 μM
Sequence (P34972 whole entry): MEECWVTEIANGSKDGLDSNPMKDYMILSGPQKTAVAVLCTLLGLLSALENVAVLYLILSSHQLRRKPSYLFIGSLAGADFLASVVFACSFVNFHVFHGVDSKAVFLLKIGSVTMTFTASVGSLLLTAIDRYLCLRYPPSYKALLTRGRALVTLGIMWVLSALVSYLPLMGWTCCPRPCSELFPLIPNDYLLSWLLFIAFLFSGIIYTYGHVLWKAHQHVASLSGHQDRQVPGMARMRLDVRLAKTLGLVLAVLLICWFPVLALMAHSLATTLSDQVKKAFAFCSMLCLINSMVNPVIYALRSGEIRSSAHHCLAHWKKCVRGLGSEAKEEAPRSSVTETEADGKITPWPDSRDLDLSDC
Reported inhibition at 10 µM values for a set of compounds

# structureSmiles, targetOrTestSystem, inhibition at 10 µM [%]
measured = [
    ("CC1(C)C(=O)N(c2ccc(C#N)c(C(F)(F)F)c2)C(=S)N1c1ccc(C(=O)O)c(F)c1", "Cannabinoid CB2 (h) (Homo sapiens)", -2),
    ("CC1(C)C(=O)N(c2ccc(C#N)c(C(F)(F)F)c2)C(=S)N1c1ccc(C(N)=O)c(F)c1", "Cannabinoid CB2 (h) (Homo sapiens)", 1),
    ("CC1(C)C(=O)N(c2ccc(C#N)c(C(F)(F)F)c2)C(=O)N1c1ccc(C(N)=O)c(F)c1", "Cannabinoid CB2 (h) (Homo sapiens)", -3),
    ("CNC(=O)c1ccc(N2C(=O)N(c3ccc(C#N)c(C(F)(F)F)c3)C(=O)C2(C)C)cc1F", "Cannabinoid CB2 (h) (Homo sapiens)", 1),
]

These measurements were taken from patent US8524755B2.
